Reported sensor-assay potency score (higher = more potent) values are given for each entry in this list.
Target: SLC6A3; also: reference of the scale not given here
Test summary: pooled miR-30 sensor sort-seq; sequence = guide strand
Particulars: shRNA
Just the number.

Sample answers from the record:
* TTTTTGTAGCACAGGTAGGGGA | -0.961
* TTTCCTGGTGAGACATACCAGG | -1.03
* TTACAGCAACACAAGACACGGC | 0.179
* TTGGTGAACTTGTTGTAGCTGG | 0.547
* TTGTTGGTGAACTTGTTGTAGC | -0.855

Problem: Return sensor-assay potency score (higher = more potent) (reported value) for this sequence: `TAGCAGTTGTTGGTGAACTTGT`
Result: -0.216

Problem: Return sensor-assay potency score (higher = more potent) (reported value) for this sequence: `TTTTGTAGCACAGGTAGGGGAA`
Result: -0.466

Problem: Return sensor-assay potency score (higher = more potent) (reported value) for this sequence: `TTCGCAAACATAAAAACTGTTG`
Result: -1.05

Problem: Return sensor-assay potency score (higher = more potent) (reported value) for this sequence: `TATTCTTGTAAACAAAAACTGC`
Result: -1.01
